- TARGET_OR_SYSTEM: T1, murine VEGFR-2/EpoR chimera (flk-1/EpoR fusion, pmKE2) on cells (mouse; human, UniProt P35918 20-762; P19235 251-508)
- T1 construct: range 1-762;range 251-508; also called CHO Flk-1; CHO-Flk
- T1 sequence (P35918 other isoform, or with tags, fused parts or gaps mutant limits assumed, form in doubt): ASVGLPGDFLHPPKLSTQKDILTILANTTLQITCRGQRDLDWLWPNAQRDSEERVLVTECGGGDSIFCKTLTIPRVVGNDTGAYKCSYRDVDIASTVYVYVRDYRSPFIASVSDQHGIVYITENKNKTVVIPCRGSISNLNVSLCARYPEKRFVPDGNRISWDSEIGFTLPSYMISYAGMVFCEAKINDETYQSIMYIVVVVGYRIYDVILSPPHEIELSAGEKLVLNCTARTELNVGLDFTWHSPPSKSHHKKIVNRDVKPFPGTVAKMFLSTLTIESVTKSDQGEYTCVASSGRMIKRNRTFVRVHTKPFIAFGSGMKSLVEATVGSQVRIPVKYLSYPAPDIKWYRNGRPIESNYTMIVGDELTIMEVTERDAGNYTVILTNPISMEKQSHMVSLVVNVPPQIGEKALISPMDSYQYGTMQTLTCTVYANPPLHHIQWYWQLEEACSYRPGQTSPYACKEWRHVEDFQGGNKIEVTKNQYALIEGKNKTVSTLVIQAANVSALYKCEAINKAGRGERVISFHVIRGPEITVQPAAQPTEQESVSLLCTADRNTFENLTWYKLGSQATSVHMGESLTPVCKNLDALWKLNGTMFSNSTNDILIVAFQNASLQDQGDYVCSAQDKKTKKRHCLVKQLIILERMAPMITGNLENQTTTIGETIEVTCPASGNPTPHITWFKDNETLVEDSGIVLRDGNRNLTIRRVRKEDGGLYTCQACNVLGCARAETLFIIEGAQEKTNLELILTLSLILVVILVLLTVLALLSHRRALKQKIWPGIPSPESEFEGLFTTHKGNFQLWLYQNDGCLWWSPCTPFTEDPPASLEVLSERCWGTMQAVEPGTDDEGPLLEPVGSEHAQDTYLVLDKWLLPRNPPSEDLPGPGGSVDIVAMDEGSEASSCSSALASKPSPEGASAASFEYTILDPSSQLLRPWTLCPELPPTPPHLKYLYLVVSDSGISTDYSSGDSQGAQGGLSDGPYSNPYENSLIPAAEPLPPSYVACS
- METHOD: flow cytometry on CHO Flk-1 cells
Give measured pEC50 for each item. Keep answers brief.
Please treat pEC50 as minus the base-10 logarithm of the molar concentration.

Entry E19 (designed binder, Del 1-8 10Fn3 clone; Flag-tagged in vitro translated protein in the radioactive assay, His6-tagged E. coli protein in BIAcore and cell assays; tags left out) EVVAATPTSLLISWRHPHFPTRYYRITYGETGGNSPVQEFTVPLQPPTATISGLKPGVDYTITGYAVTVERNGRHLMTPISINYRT has what pEC50? 8.28

Entry E18 (designed binder, Del 1-8 10Fn3 clone; Flag-tagged in vitro translated protein in the radioactive assay, His6-tagged E. coli protein in BIAcore and cell assays; tags left out) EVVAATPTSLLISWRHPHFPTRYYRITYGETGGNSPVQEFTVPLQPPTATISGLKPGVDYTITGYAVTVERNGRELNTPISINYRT has what pEC50? 9.05

Entry E29 (designed binder, Del 1-8 10Fn3 clone; Flag-tagged in vitro translated protein in the radioactive assay, His6-tagged E. coli protein in BIAcore and cell assays; tags left out) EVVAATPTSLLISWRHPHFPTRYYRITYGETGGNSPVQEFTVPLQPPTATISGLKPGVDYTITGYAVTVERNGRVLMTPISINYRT has what pEC50? 9.22

Entry E26 (designed binder, Del 1-8 10Fn3 clone; Flag-tagged in vitro translated protein in the radioactive assay, His6-tagged E. coli protein in BIAcore and cell assays; tags left out) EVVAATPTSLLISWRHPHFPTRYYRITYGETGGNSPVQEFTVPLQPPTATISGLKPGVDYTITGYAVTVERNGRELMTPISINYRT has what pEC50? 8.89
